molecular target: 5-hydroxytryptamine receptor 2A (Homo sapiens, UniProt P28223); experiment: Displacement of [3H]ketanserin from human recombinant 5HT2A receptor expressed in avCHO-K1 cells
Sequence (P28223 whole entry): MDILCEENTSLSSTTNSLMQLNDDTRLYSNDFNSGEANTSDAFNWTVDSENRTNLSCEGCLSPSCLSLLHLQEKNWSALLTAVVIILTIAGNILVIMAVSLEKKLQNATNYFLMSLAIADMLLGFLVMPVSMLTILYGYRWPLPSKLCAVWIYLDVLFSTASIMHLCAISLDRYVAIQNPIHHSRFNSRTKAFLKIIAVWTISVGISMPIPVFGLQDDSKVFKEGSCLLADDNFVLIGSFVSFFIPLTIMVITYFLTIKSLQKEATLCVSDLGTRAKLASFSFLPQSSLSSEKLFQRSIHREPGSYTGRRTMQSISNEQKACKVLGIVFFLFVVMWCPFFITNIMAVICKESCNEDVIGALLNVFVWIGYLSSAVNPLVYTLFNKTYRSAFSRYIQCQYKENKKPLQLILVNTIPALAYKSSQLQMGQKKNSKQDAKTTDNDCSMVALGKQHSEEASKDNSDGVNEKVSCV
readout.kind: IC50 (nM)

1. O=S(=O)(c1ccc(F)cc1)N(CCCN1CCN(c2ccccc2)CC1)CC1CC1	142
2. COc1ccccc1N1CCN(CCCN(CC2CC2)S(=O)(=O)c2ccc3ccccc3c2)CC1	85.8
3. COc1ccc(S(=O)(=O)N(CCCN2CCN(c3ccc(F)cc3)CC2)CC2CC2)cc1	72.5
4. O=S(=O)(c1ccc(C(F)(F)F)cc1)N(CCCN1CCN(c2ccccc2)CC1)CC1CC1	70.8
5. O=S(=O)(c1cccc2cccnc12)N(CCCN1CCN(c2cccc(C(F)(F)F)c2)CC1)CC1CC1	75
